test: Half life in mouse at 3 mg/kg, iv; format: ADME, organism-based; details: in vivo
recorded metric: half-life (h)

>>> print(df.to_string())
                           molecular_string  reported_measurement
0  Cc1cc(C(F)(F)F)cc(N2C(=O)[C@@H](O)[C@@H](O)[C@H]2C(=O)N(C)c2ccc(F)c(Cl)c2)n1                     7

###

assay: Solubility of the compound; type: physicochemical
recorded metric: solubility (µM)

In [3]: df
Out[3]:
                           molecular_string  recorded_metric  reported_measurement
0  Cc1cc(C(F)(F)F)cc(N2C(=O)[C@@H](O)[C@@H](O)[C@H]2C(=O)N(C)c2ccc(F)c(Cl)c2)n1       solubility                   880

###

assay: AUCinfinity in mouse at 10 mg/kg, po; format: ADME, organism-based; parameters: time infinity, dose 10 mg/kg, route po; settings: in vivo
recorded metric: AUC(0-inf)

                           molecular_string  reported_measurement
0  Cc1cc(C(F)(F)F)cc(N2C(=O)[C@@H](O)[C@@H](O)[C@H]2C(=O)N(C)c2ccc(F)c(Cl)c2)n1         54700 ng·h/mL

###

assay: Metabolic stability in mouse liver microsomes assessed as intrinsic clearance; format: ADME, Microsome; conditions: read-out: CLH
recorded metric: microsomal CLint (µL/min/mg)

>>> print(df.to_string())
                            molecular_string  prefix_operator  reported_measurement
 0  Cc1cc(C(F)(F)F)cc(N2C(=O)OC[C@H]2C(=O)N(c2ccc(F)c(Cl)c2)C(C)C)n1                =                    48
 1  Cc1cc(C(F)(F)F)cc(N2C(=O)OC[C@H]2C(=O)N(C)c2ccc(F)c(Cl)c2)n1                =                   138
 2  Cc1cc(C(F)(F)F)cc(N2C(=O)OC[C@H]2C(=O)N(C)c2cc(Cl)ccc2F)n1                =                   157
 3  Cc1cccc(N(C)C(=O)[C@@H]2COC(=O)N2c2cc(C(F)(F)F)cc(C)n2)c1                =                   580
 4  Cc1cc(C(F)(F)F)cc(N2C(=O)[C@@H](O)[C@@H](O)[C@H]2C(=O)N(C)c2ccc(F)c(Cl)c2)n1                =                    42
 5  Cc1cc(C(F)(F)F)cc(N2C(=O)[C@@H](O)C[C@H]2C(=O)N(C)c2ccc(F)c(Cl)c2)n1                =                    96
 6  Cc1cc(C(F)(F)F)cc(N2C(=O)OC[C@H]2C(=O)N(C)c2cccc(Cl)c2)n1                =                   410
 7  Cc1cc(C(F)(F)F)cc(N2C(=O)C[C@@H](O)[C@H]2C(=O)N(C)c2ccc(F)c(Cl)c2)n1                =                   260
 8  Cc1cc(C(F)(F)F)cc(N2C(=O)OC[C@H]2C(=O)N(C)c2ccc(F)c(C)c2F)n1                =                   818
 9  Cc1cc(C(F)(F)F)cc(N2C(=O)OC[C@H]2C(=O)N(C)c2cccc(Cl)c2F)n1                =                   165
10  CCN(C(=O)[C@@H]1COC(=O)N1c1cc(C(F)(F)F)cc(C)n1)c1ccc(F)c(Cl)c1                =                   260
11  Cc1cccc(N(C)C(=O)[C@@H]2[C@H](O)CCN2c2nc(C)cc(C(F)(F)F)c2C#N)c1                >                  1500
12  Cc1cccc(N(C)C(=O)[C@@H]2CCC(=O)N2c2cc(C(F)(F)F)cc(C)n2)c1                >                  1000
13  Cc1cc(C(F)(F)F)cc(N2C(=O)OC[C@H]2C(=O)N(C)c2ccc(F)c(C)c2)n1                =                   404
14  CCN(C(=O)[C@@H]1C[C@H](O)C(=O)N1c1cc(C(F)(F)F)cc(C)n1)c1ccc(F)c(Cl)c1                =                   181
15  Cc1cc(C(F)(F)F)cc(N2C(=O)OC[C@H]2C(=O)N(C)c2ccc(F)c(Cl)c2F)n1                =                   210
16  Cc1cc(C(F)(F)F)cc(N2C(=O)OC[C@H]2C(=O)N(C)c2cc(Cl)c(F)cc2F)n1                =                    98
17  CCN(C(=O)[C@@H]1[C@H](O)[C@H](O)C(=O)N1c1cc(C(F)(F)F)cc(C)n1)c1ccc(F)c(Cl)c1                =                    20

###

molecular target: DNA polymerase theta (Homo sapiens); assay: Inhibition of recombinant human full length DNA polymerase theta using DNA substrate measured after 1 hrs in presence of dNTPs by plate reader assay
Sequence (O75417 whole entry): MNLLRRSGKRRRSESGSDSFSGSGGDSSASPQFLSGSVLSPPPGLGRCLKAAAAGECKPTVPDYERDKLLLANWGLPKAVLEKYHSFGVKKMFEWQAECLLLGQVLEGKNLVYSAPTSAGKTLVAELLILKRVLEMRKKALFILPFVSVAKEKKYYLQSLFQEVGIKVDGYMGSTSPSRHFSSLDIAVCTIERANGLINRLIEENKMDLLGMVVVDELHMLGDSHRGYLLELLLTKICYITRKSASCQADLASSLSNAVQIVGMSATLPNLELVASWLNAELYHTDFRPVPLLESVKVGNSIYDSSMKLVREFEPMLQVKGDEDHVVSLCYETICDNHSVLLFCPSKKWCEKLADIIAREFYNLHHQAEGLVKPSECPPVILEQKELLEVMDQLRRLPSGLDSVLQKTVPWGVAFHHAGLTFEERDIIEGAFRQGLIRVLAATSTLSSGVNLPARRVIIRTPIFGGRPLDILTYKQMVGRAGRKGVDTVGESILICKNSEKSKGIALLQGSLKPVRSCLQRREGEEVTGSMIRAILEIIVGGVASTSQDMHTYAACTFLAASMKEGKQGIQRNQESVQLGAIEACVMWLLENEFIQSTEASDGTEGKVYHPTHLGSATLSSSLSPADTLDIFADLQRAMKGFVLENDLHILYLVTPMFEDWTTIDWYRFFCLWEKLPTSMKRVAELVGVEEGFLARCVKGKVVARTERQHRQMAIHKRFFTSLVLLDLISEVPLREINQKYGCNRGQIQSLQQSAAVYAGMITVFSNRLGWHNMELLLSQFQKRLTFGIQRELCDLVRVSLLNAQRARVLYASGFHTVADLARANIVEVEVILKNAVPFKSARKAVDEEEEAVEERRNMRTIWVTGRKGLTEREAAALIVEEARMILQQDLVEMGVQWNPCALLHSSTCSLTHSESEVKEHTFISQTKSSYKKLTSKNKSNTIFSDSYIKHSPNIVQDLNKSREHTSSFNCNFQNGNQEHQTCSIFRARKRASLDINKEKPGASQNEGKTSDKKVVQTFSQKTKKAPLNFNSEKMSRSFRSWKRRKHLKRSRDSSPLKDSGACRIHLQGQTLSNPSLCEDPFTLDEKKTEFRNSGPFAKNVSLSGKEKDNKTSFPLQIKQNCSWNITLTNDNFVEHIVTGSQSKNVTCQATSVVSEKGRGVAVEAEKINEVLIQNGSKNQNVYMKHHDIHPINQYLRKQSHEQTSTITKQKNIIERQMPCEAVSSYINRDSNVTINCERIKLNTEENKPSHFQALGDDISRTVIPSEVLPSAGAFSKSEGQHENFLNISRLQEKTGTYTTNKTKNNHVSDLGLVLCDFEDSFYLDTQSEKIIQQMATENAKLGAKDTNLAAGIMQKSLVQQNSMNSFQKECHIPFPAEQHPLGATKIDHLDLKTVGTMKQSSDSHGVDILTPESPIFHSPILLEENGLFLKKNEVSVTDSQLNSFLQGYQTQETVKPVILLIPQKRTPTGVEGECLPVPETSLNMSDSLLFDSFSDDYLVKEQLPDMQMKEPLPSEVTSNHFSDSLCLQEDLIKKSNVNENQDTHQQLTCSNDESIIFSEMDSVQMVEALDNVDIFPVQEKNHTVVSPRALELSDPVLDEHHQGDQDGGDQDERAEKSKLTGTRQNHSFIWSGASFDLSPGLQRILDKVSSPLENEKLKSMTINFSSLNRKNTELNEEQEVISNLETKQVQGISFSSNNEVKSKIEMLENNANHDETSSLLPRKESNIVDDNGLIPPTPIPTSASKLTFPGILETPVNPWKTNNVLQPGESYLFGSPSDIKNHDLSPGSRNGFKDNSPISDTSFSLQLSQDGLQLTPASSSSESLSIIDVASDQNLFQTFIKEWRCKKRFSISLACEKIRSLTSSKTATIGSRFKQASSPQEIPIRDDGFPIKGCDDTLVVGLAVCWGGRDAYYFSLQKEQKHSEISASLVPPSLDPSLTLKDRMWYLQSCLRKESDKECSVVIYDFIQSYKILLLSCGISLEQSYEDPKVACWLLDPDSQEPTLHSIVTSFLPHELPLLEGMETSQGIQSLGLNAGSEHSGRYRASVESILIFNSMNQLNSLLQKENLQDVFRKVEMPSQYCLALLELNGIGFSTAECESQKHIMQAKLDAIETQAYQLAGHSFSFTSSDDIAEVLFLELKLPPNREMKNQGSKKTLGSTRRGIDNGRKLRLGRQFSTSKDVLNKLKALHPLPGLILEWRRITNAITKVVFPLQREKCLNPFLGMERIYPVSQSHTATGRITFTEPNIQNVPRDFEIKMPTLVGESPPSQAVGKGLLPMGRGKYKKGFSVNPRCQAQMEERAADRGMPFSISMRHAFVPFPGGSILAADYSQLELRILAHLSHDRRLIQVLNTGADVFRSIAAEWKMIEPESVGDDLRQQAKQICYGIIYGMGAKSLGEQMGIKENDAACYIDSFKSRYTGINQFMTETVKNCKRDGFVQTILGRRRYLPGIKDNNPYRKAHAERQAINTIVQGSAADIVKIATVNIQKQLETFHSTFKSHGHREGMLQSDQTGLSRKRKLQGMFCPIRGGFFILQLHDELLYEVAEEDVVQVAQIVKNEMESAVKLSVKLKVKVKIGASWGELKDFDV
recorded metric: IC50 (nM)

In [3]: df
Out[3]:
                            molecular_string  prefix_operator  reported_measurement
 0  CCN(C(=O)COc1cc(C(F)(F)F)cc(C)n1)c1cccc(C)c1                =                   530
 1  CCN(C(=O)[C@H](C)Nc1nc(C)cc(C)c1C#N)c1cccc(C)c1                =                   230
 2  CCN(C(=O)COc1cc(C(C)C)cc(C)n1)c1cccc(C)c1                =                   400
 3  CCN(C(=O)[C@@H]1CCCN1c1nc(C)cc(C)c1C#N)c1cccc(C)c1                =                    72
 4     CCN(C(=O)COc1cc(C)cc(C)n1)c1cccc(C)c1                =                  4200
 5  Cc1cccc(N(C(=O)[C@@H]2CCCN2c2nc(C)cc(C(F)(F)F)c2C#N)C(C)C)c1                =                   8.8
 6  CCN(C(=O)COc1nc(C)c(Br)c(C(F)(F)F)c1C#N)c1cccc(C)c1                =                   400
 7  CCN(C(=O)CNc1nc(C)cc(C)c1C#N)c1cccc(C)c1                =                  1800
 8  Cc1cc(C(F)(F)F)cc(N2C(=O)C[C@@H](O)[C@H]2C(=O)N(C)c2ccc(F)c(Cl)c2)n1                =                   5.9
 9  Cc1cc(C(F)(F)F)cc(N2C(=O)[C@H](O)[C@H](O)[C@@H]2C(=O)N(C)c2ccc(F)c(Cl)c2)n1                >                 12000
10  CCN(C(=O)[C@H](C)Nc1nc(C)cc(C(F)(F)F)c1C#N)c1cccc(C)c1                =                    29
11  Cc1cc(C(F)(F)F)cc(N2C(=O)OC[C@H]2C(=O)N(C)c2ccc(F)c(Cl)c2)n1                =                    15
12  Cc1cc(C(F)(F)F)cc(N2C(=O)[C@@H](O)[C@@H](O)[C@H]2C(=O)N(C)c2ccc(F)c(Cl)c2)n1                =                   7.6
13  CCN(C(=O)[C@H](CO)Nc1nc(C)cc(C(F)(F)F)c1C#N)c1cccc(C)c1                =                    79
14  Cc1cc(C(F)(F)F)cc(N2C(=O)OC[C@H]2C(=O)N(C)c2ccc(F)c(C)c2)n1                =                   9.4
15  Cc1cc(C(F)(F)F)cc(N2C(=O)OC[C@H]2C(=O)N(C)c2ccc(F)c(C)c2F)n1                =                   4.1
16  CCN(C(=O)[C@H](C)Nc1nc(C)cc(C(C)C)c1C#N)c1cccc(C)c1                =                    49
17  CCN(C(=O)[C@@H]1COCCN1c1nc(C)cc(C(F)(F)F)c1C#N)c1cccc(C)c1                =                  2700
18  CCN(C(=O)COc1nc(C)c(Cl)c(C)c1C#N)c1cccc(C)c1                =                   630
19  CCN(C(=O)COc1nc(C)c(Br)c(C)c1C#N)c1cccc(C)c1                =                  1500

Data origin: ChEMBL document CHEMBL5108060
